Hey, just so you know, these numbers are from ChEMBL document CHEMBL5120755.

- protocolSummary: Inhibition of Mycobacterium tuberculosis CYP121A1 mediated cYY conversion to mycocyclosin assessed as fold change in cYY level at 100 uM incubated for 2 hrs in the presence of NADPH by LC-MS activity assay relative to clotrimazole
- Type: ADME
- experimentalSetup: recombinant enzyme
readoutType: fold change (FC)

lineNotation | measuredResult
c1ccc2c(CCc3nc4c(c(N5CCOCC5)n3)CCNC4)c[nH]c2c1 | 1.3
Brc1ccc2c(c1)N(c1nccc(CCc3c[nH]c4ccccc34)n1)CCO2 | 0.3
COC1CN(c2nccc(CCc3c[nH]c4ccccc34)n2)C1 | 1.2
